Would you mind telling me the reported IC50 of each entry?
molecular target: noradrenaline (NA) (α2) receptor; test: In vitro binding, brain noradrenaline alpha2 receptor sites; details: non-pretreated rats
Give a bare numeral; the unit µM is implied.

Entry CCCN(CCC)C1CCc2ccc3[nH]cc(C=O)c3c2C1 (racemic) [(±)-13b] ; IC50 = 3.7

Documented IC50 of CN(C)[C@@H]1CCc2ccc3[nH]cc(C=O)c3c2C1 [(+)-13a] : 0.14

---

assay: Blood pressure, heart rate and rectal temperature in awake spontaneously hypertensive rats (SHR); format: in vivo, rat (spontaneously hypertensive; conditions: rat, in vivo, po
property: bioavailability (%)
State just the number; it will be interpreted in %.

The compound listed as CCCN(CCC)C1CCc2ccc3[nH]cc(C=O)c3c2C1 (racemic) [(±)-13b] shows bioavailability equal to 36
